Test system: SF-295 CNS
Assay: NCI tumour cell line growth inhibition, 48 h
Reported TGI values for a set of molecules

Value of measured TGI for the entry CC(=O)NC1=C(OS(=O)(=O)c2ccc(C)cc2)CN(C)C1=O : 13.9 µM

====

System: NCI-H23 lung
Assay: NCI tumour cell line growth inhibition, 48 h
Catalogue of TGI readings, one per entry.
# unit: µM | format: bare number

compound: CCOC(=O)C1=C(NC)OC/C1=N\NC(=O)c1ccccc1O
measure-unit: µM
TGI: 54.9
//
compound: C/C=C/[P+](c1ccccc1)(c1ccccc1)c1ccccc1
measure-unit: µM
TGI: 14.3
//
compound: COc1cccc(NC(=O)c2sc3nc4c(cc3c2N)CN(Cc2ccccc2)CC4)c1
measure-unit: µM
TGI: 49.2
//
compound: CC(CN1CCN(CCOCCO)CC1)CN1c2ccccc2Sc2ccc(Cl)cc21 (stereo not given)
measure-unit: µM
TGI: 24.2
//
compound: CC(=O)NC1=C(OS(=O)(=O)c2ccc(C)cc2)CN(C)C1=O
measure-unit: µM
TGI: 15.3
//
compound: c1ccc2c(c1)c(NCCCCN1CCCCC1)cc1c3ccccc3c(NCCCCN3CCCCC3)cc21
measure-unit: µM
TGI: 44.5
//
compound: CCCN(C(=O)c1c(Cl)nnc(Cl)c1C(=O)c1cc(Cl)nnc1Cl)c1cc(Cl)nnc1Cl
measure-unit: µM
TGI: 20.3

Please examine the following record next.
The reported TGI of the compound CN(C(=O)Cc1cc(Cl)c(Cl)cc1N=C=S)[C@H]1CCCC[C@@H]1N1CCCC1 was 30.5

====

The entries below are paired with their reported GI50.
Test system: HCC-2998 colon
Assay: NCI tumour cell line growth inhibition, 48 h

Worked examples, 4 compounds total:
mol: O=C1c2ccccc2-c2c1c1ccc([N+](=O)[O-])cc1c(=O)n2CCCBr
target-under-test: HCC-2998 colon
GI50: > 100 µM

mol: COc1cc2c(cc1OCCCCOc1cc3c(cc1OC)C(=O)N1CCC[C@H]1CN3)N=C[C@@H]1CCCN1C2=O
target-under-test: HCC-2998 colon
GI50: 2 µM

mol: CCN(C(=O)N1CCN(c2cc3c(cc2F)c(=O)c(C(=O)O)cn3C2CC2)CC1)c1nc(-c2ccc(C)cc2)cs1
target-under-test: HCC-2998 colon
GI50: 0.694 µM

mol: COC(=O)Cn1c2c(c3c(O)cccc31)C(=O)c1ccccc1-2
target-under-test: HCC-2998 colon
GI50: > 100 µM

Read the next record carefully.
For reference, reported GI50 for CN(C)c1ccc2c(c1)Sc1cc(N(C)C)ccc1N2C(=O)c1ccccc1 stands at 73.2 µM

====

Tested on: RXF 393 renal
Assay: NCI tumour cell line growth inhibition, 48 h
property-label: TGI

Solved cases below.
molecule: Cc1ccc(C2=NOC3=c4ccccc4=CSC3=C2c2ccc([N+](=O)[O-])cc2)cc1
target-under-test: RXF 393 renal
TGI: 64.6 µM
//
molecule: O=C1OC(CCCl)(c2ccccc2)CC1CN1CCOCC1 (stereo not drawn)
target-under-test: RXF 393 renal
TGI: 30.9 µM
//
molecule: C#CCOCC12C=CC(O1)C1C(=O)N(C)C(=O)C12 (stereo not drawn)
target-under-test: RXF 393 renal
TGI: > 100 µM

TGI on RXF 393 renal for COC(=O)c1c2n(c3ccccc13)C[C@H]1OC(C)(C)O[C@@H]21 is > 100 µM

Simply: COc1ccc2cc(-c3ccoc(=O)c3-c3cc(OC)c(OC)c(OC)c3)ccc2c1 , RXF 393 renal, TGI = > 100 µM

Given the molecule N#CC(c1ccccc1)c1nc2ccc(=N)cc-2n(O)c1C(C#N)c1ccccc1 (stereo not drawn) and test system RXF 393 renal, the measured TGI is > 100 µM
